Test system: LOX IMVI melanoma
Experiment: NCI tumour cell line growth inhibition, 48 h
PROPERTY: TGI

1) Cn1ccc(C(=O)N2CCSC2=S)c(OCc2ccccc2)c1=O | > 100 µM
2) Cc1oc2c(C)c3oc(=O)cc(C)c3cc2c1CNC(=O)[C@@H]1OCCOCCOCCOCCOCCOC1C(=O)O (stereo not given in full) | > 100 µM
3) Fc1ccc(-c2nn3c(-c4ccc(F)c(Cl)c4)nnc3s2)cc1 | > 50 µM
4) Nc1ccccc1-c1ccc([N+](=O)[O-])cc1 | > 100 µM
5) Cc1cc(Cl)cc2c(N=Nc3ccccc3[N+](=O)[O-])c(O)[nH]c12 | > 100 µM
6) Nc1ccc(-c2cssc2=S)cc1 | > 100 µM
7) Cc1ccc(N=NC2S/C(=C(\C#N)c3nc4ccccc4[nH]3)N(c3ccccc3)C2=O)cc1 (stereo not given) | > 100 µM
8) Cc1ccc(NC(=O)Cc2ccc(/C=C/C(=O)c3ncc[nH]3)cc2)cc1 | 6.76 µM
9) C#CCNC(=O)NCCCC(NC(C)=O)C(=O)NCc1ccccc1 (stereo not given) | > 100 µM
10) O=C1CS(=O)(=O)C(c2cccc(Oc3ccccc3)c2)N1c1cccc(Cl)c1 (stereo not given) | 32.1 µM

====

System: OVCAR-4 ovarian
Test: NCI tumour cell line growth inhibition, 48 h
// reported GI50 per item
PROPERTY: GI50

1. Clc1ccc(/C=C/c2cc(N3CCOCC3)c3cc(Cl)c(Cl)cc3n2)cc1 | > 100 µM
2. CCCCCc1nc2c(c3c1CCCC3)CCCC2 | 5.61 µM
3. CCCCCCc1cc2cc(-c3nc4ccccc4[nH]3)c(=Nc3ccccc3C)oc2cc1O | 1.69 µM
4. [Cl][Sn]([Cl])([c]1ccccc1)[c]1ccccc1 | 16.8 µM
5. COc1cc(-c2nc3sccn3c2-c2ccnc(NCCNS(=O)(=O)c3ccc(Cl)cc3)n2)ccc1F | 3.72 µM
6. CCOC(=O)c1sc2ncn(Cc3cccc(Br)c3)c(=O)c2c1C | 30.9 µM
7. O=c1cc(-c2ccccc2)oc2cc(O)c(O)c(O)c12 | 47.1 µM
8. C#CCN(Cc1nc2cc(C(F)(F)F)ccc2nc1-c1ccccc1)c1ccc(OC(F)(F)F)cc1 | > 100 µM
9. COC(=O)C1=C(C)NC(C)=C(C(=O)OC)C1/C=C(\Cl)c1ccc(Cl)c(Cl)c1 | 10.8 µM
10. Cc1cc2cc3cc(C)c(N(C)C)cc3[n+](C)c2cc1N(C)C | 2.83 µM

====

System: COLO 205 colon
Assay: NCI tumour cell line growth inhibition, 48 h
// reported TGI per item
PROPERTY: TGI (µM)

1) N#C/C(=N\Nc1ccc(Cl)cc1)C(=O)Nc1cc(-c2ccccc2)nn1-c1ccccc1 | 4.51
2) CO/C=C(/C(=O)OC)c1ccccc1[C@@H]1CC1c1cccc(F)c1 (some centres undefined) | 30.3
3) Cc1cc(NCCCNc2ccnc3cc(Cl)ccc23)nc(N2CCN(C)CC2)n1 | 6.29
4) COC(=O)c1cc2c3c(cc(N(C)C)c2[nH]1)N(C(=O)c1cc2cc(OC)c(OC)c(OC)c2[nH]1)CC3CCl (centres undefined) | 0.0131
5) N#CC(c1nc2ccccc2s1)c1ncnc(Cl)c1[N+](=O)[O-] (centres undefined) | 29.8
6) CN(c1cc2ncc(=O)[nH]c2cc1NC(N)=NCc1ccc(Cl)cc1)C1CCCCC1 | 2.55
7) CC(C)CCC[C@@H](C)[C@H]1CC[C@H]2[C@@H]3CC[C@H]4C[C@H](N)CC[C@]4(C)[C@H]3CC[C@]12C | 56.3
